Just for reference, patent US20220064275A1 is where these values come from.

target: T1, human LTBP3-proTGFβ1 complex (human, UniProt Q9NS15 866-1039); assay: MSD-SET, solution equilibrium titration
T1 construct: range 866-1039; also called hLTBP3-proTGFβ1; hLTBP3
T1 sequence (Q9NS15 866-1039 limits assumed, chain 1 of 2): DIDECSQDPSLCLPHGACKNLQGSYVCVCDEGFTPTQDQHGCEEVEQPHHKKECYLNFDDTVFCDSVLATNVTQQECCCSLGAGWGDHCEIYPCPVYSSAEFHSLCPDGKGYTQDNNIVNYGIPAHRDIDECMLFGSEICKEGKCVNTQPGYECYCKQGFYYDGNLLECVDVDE
T1 sequence (chain, as listed by the source limits assumed, chain 2 of 2): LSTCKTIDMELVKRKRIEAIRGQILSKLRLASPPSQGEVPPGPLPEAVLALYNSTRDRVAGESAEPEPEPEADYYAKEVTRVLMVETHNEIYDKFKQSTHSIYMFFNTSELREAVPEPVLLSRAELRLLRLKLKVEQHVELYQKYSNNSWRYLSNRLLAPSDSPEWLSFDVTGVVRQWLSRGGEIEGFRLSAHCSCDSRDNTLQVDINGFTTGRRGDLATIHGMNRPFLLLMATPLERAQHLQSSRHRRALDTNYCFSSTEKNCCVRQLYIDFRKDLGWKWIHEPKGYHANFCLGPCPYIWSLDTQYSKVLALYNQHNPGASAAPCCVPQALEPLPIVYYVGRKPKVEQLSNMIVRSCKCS
parameter: pKd
On this scale, pKd is minus log10 of a concentration expressed in M (mol/L).

// query pKd value for entry Ab2 (antibody, human IgG4 S228P, kappa, V domains shown) VH: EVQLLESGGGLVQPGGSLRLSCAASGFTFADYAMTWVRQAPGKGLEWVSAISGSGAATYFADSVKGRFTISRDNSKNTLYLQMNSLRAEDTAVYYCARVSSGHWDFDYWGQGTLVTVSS VL: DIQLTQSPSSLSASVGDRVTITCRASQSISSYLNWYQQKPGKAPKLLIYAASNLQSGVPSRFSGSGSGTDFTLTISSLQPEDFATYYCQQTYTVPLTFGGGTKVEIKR 9.77

For the binder Ab30 (antibody, IgG4, V domains shown) VH: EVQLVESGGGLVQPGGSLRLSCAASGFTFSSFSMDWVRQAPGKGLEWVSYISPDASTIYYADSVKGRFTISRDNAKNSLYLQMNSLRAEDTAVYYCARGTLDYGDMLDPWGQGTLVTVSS VL: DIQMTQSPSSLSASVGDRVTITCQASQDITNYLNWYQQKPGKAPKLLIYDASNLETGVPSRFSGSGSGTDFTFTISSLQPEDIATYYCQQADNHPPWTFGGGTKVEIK , what pKd is on record? 10.59

For the binder Ab4 (antibody, IgG4, V domains shown, also called parental lead antibody of Ab6) VH: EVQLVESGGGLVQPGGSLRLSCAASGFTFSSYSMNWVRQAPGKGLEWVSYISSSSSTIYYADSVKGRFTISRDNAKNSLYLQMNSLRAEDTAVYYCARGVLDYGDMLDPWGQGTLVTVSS VL: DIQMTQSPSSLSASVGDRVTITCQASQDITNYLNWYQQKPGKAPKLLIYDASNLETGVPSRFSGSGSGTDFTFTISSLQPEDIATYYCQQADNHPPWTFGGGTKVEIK , what pKd is on record? 8.26
